Reported IC50 values are given for each entry in this list.
- study-target: human CYP11B2 (Homo sapiens, UniProt P19099)
- Sequence (P19099 25-503): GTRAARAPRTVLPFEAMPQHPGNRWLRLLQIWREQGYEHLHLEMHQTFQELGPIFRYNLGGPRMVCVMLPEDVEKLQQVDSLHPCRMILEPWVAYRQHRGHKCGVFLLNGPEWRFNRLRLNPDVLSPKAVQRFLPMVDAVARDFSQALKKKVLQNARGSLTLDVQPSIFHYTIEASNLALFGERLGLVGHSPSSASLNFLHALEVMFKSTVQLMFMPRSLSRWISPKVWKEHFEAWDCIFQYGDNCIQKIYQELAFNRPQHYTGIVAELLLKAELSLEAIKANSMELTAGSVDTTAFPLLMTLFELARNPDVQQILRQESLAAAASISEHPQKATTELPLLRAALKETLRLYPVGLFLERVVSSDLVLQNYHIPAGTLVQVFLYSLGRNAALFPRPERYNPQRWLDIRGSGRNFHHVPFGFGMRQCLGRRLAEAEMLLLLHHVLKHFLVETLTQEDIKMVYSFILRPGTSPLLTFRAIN
- protocol-notes: V79-Human-CYP11B2 cell assay
- settings: V79 cells stably expressing human CYP11B2; 125 nM 11-deoxycorticosterone substrate; aldosterone by HTRF
Please give a number only; it is taken to be in µM.

# count of solved cases: 2
{"molecule": "CC(C)(O)c1cncc(-n2ncc3cccc(F)c32)c1", "quantitative-readout": 0.0012}
{"molecule": "Cc1nn(-c2cncc(C(F)(F)F)c2)c2cccc(F)c12", "quantitative-readout": 0.017}

Form field IC50 for item `C[C@](O)(c1cncc(-n2ncc3c(C(F)(F)F)cccc32)c1)C(F)(F)F` on human CYP11B2 (Homo sapiens, UniProt P19099): 0.0022

Form field IC50 for item `CCc1c(F)cncc1-n1ncc2c(F)cccc21` on human CYP11B2 (Homo sapiens, UniProt P19099): 0.131

Form field IC50 for item `CN(C)c1cncc(-n2ncc3c(Cl)cccc32)n1` on human CYP11B2 (Homo sapiens, UniProt P19099): 0.0175

Form field IC50 for item `CC(C)(O)c1cncc(-n2ncc3cc(F)c(F)cc32)c1` on human CYP11B2 (Homo sapiens, UniProt P19099): 0.023

Form field IC50 for item CC(O)(c1cncc(-n2ncc3c2CCCC3)c1)C(F)(F)F (stereo not shown) on human CYP11B2 (Homo sapiens, UniProt P19099): 0.0077

Form field IC50 for item `Clc1cccc2c1cnn2-c1cncc(N2CCC2)n1` on human CYP11B2 (Homo sapiens, UniProt P19099): 0.0016

Form field IC50 for item `Fc1cc2cnn(-c3cncc4ccccc34)c2cc1F` on human CYP11B2 (Homo sapiens, UniProt P19099): 0.0019

Form field IC50 for item `Fc1ccc2c(cnn2-c2cncc(C(F)(F)F)c2)c1` on human CYP11B2 (Homo sapiens, UniProt P19099): 0.083

====

- study-target: human CYP11B1 (Homo sapiens)
- Sequence (P15538 25-503): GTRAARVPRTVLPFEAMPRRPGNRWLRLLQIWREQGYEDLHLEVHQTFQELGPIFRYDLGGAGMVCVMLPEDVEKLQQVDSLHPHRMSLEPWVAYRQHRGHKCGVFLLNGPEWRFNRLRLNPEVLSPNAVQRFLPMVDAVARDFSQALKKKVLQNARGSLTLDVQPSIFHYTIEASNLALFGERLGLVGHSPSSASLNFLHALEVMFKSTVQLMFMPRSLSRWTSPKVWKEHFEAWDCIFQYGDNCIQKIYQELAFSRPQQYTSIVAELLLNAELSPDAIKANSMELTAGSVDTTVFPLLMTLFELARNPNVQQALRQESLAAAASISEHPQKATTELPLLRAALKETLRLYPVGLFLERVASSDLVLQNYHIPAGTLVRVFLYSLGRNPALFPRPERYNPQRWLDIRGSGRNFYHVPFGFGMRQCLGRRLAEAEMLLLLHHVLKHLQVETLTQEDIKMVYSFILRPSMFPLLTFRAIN
- protocol-notes: V79-Human-CYP11B1 cell assay
- settings: V79 cells stably expressing human CYP11B1; 250 nM 11-deoxycortisol substrate; cortisol by HTRF
endpoint-name: pIC50
When answering, recall that pIC50 equals minus log10 of the concentration in mol/L, and write that number alone.

# count of solved cases: 5
{"compound": "Fc1ccc2c(cnn2-c2cncc(C(F)(F)F)c2)c1", "pIC50": 5.72}
{"compound": "Clc1cccc2c1cnn2-c1cncc(N2CCC2)n1", "pIC50": 7.50}
{"compound": "C[C@](O)(c1cncc(-n2ncc3c(C(F)(F)F)cccc32)c1)C(F)(F)F", "pIC50": 7.01}
{"compound": "CC(O)(c1cncc(-n2ncc3c2CCCC3)c1)C(F)(F)F (stereo not shown)", "pIC50": 6.30}
{"compound": "CN(C)c1cncc(-n2ncc3c(Cl)cccc32)n1", "pIC50": 6.20}

Measured pIC50, `CC(C)(O)c1cncc(-n2ncc3cc(F)c(F)cc32)c1` : 6.52

Measured pIC50, `CC(C)(O)c1cncc(-n2ncc3cccc(F)c32)c1` : 7.44

====

Reported IC50 values are given for each entry in this list.
- study-target: human CYP11B1 (Homo sapiens, UniProt P15538)
- protocol-notes: V79-Human-CYP11B1 cell assay
- settings: V79 cells stably expressing human CYP11B1; 250 nM 11-deoxycortisol substrate; cortisol by HTRF
Respond with a number, then the unit of measure.

{"compound": "Cc1nn(-c2cncc(C(F)(F)F)c2)c2cccc(F)c12", "IC50": "0.257 µM"}
{"compound": "CCc1c(F)cncc1-n1ncc2c(F)cccc21", "IC50": "1.8 µM"}

Measured IC50, `Fc1cc2cnn(-c3cncc4ccccc34)c2cc1F` : 0.107 µM
